Target: Muscarinic acetylcholine receptor M4 (Rattus norvegicus, UniProt P08485)
Sequence (P08485 as listed by the source): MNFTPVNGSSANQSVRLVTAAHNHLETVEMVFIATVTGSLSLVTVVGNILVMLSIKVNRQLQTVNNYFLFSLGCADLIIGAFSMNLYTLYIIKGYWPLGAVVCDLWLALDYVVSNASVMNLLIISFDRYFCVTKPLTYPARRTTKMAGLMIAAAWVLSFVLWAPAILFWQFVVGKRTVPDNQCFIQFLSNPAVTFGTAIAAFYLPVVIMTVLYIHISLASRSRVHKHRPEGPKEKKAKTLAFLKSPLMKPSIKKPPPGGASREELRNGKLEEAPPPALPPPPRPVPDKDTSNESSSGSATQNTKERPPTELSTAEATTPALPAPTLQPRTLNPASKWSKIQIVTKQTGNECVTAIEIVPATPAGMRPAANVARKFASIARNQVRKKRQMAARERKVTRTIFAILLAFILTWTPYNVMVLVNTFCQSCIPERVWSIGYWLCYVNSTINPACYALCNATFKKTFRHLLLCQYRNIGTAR
Assay: rat M4 positive allosteric modulator potency, SAR follow-up, cell-based, analogs, calcium mobilization, Gqi5 (AID 1923)
pEC50: −log10 of the molar value.
quantityKind: pEC50

smilesInput	targetEntity	measurement
Cc1cc(C)c2c(N)c(C(=O)NCc3ccc4c(c3)OCO4)sc2n1	Muscarinic acetylcholine receptor M4 (Rattus norvegicus, UniProt P08485)	6.43

Values from BindingDB's records for doi:10.7270/Q2251GKR
